Data origin: patent US8809345B2

// reported pIC50 per item
Biological target: human PDE9A2 (Homo sapiens)
Sequence (O76083 1-533 isoform O76083-2): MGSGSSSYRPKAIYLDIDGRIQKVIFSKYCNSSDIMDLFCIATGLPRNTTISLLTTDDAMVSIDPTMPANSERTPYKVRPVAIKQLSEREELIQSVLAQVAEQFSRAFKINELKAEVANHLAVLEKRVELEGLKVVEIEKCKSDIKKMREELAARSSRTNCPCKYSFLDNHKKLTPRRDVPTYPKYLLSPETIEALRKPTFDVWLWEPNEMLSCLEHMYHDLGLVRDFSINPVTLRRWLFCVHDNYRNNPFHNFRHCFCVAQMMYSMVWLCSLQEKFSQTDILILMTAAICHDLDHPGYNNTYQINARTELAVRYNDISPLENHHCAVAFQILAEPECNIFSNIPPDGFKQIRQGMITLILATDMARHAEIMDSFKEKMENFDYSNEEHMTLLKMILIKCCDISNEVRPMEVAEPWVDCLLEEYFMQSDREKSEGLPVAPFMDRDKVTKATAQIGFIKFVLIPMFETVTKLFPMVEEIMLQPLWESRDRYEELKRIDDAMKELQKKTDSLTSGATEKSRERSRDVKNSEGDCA
Experiment: PDE9A2 enzymatic activity assay (scintillation proximity assay)
Details: SPA, lysate of SF9 cells expressing human PDE9A2, 20 nanomolar cGMP
Procedure: The total protein amount included in the assay varied upon infection and production efficacy of the SF9 cells and lay in the range of 0.1-100 ng. The assays were run in 384-well format. The test reagents as well as the enzyme and the substrate were diluted in assay buffer. […] IC50 can be calculated with GraphPadPrism or other suitable software setting the positive control as 100 and the negative control as 0. […]
FYI, pIC50 means -log10 of a concentration in mol per litre.

Problem: Write down measured pIC50 (human PDE9A2 (Homo sapiens)) for this compound. O=c1[nH]c([C@@H]2CC[C@H]2c2cn3ccccc3n2)nc2c1cnn2C1CCC(F)(F)CC1 (racemic) [Example 4]
Result: 8.22

Problem: Write down measured pIC50 (human PDE9A2 (Homo sapiens)) for this compound. O=c1[nH]c([C@@H]2CC[C@H]2c2cn3ccc(Cl)cc3n2)nc2c1cnn2C1CCC(F)(F)CC1 (racemic) [Example 5]
Result: 8.00
